Measured values drawn from ChEMBL document CHEMBL1154315 for this set.

# assay_method_text: Bioavailability in rat at 3 mg/kg
# Type: ADME, organism-based
# condition_context: in vivo
readout_label: bioavailability
Mention the unit after the number when you answer.

Query: # bioavailability lookup, item `N#Cc1cc(-c2n[nH]c(-c3ccncc3)n2)ccn1`
Result: 69.6%

----------
# system: Xanthine dehydrogenase/oxidase (Bos taurus, UniProt P80457)
# Sequence (P80457 whole entry): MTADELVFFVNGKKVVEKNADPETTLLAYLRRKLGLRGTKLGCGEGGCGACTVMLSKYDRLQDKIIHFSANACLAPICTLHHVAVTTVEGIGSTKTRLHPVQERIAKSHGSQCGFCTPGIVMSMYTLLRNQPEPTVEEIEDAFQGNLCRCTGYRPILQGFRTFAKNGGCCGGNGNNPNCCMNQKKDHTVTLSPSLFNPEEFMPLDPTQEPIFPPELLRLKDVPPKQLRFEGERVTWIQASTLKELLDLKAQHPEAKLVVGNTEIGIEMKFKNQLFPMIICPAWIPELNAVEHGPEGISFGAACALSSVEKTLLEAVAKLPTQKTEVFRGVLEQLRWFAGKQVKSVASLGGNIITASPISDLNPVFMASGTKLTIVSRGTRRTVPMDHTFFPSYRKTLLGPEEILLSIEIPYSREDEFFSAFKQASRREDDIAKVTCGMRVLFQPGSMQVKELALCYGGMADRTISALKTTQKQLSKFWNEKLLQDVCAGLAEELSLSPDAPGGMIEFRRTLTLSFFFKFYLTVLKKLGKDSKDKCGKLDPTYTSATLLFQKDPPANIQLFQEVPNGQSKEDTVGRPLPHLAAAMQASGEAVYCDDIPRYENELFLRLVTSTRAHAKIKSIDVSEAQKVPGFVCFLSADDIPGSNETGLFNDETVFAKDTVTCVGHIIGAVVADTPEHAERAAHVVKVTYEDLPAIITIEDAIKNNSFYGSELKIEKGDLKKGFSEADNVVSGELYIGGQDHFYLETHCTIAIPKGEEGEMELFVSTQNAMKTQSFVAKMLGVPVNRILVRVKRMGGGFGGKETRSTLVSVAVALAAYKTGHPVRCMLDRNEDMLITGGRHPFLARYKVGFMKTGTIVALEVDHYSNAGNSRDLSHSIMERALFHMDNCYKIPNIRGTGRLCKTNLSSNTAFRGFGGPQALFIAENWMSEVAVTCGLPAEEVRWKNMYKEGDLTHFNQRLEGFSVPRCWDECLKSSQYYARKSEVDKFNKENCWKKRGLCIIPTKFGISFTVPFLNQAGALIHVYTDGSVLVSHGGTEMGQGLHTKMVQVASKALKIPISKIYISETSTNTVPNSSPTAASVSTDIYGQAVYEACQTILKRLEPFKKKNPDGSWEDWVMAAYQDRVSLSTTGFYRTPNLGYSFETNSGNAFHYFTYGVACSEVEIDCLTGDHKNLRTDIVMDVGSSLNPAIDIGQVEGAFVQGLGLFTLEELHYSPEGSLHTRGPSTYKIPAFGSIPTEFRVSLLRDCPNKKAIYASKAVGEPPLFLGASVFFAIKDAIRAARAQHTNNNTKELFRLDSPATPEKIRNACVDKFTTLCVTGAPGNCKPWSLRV
IC50 by entry:
Dear colleague, please return just the value in nM, with no unit written.

Before answering, review these 2 worked examples.
Query: Give recorded IC50 with Xanthine dehydrogenase/oxidase (Bos taurus, UniProt P80457) for the following molecule: `COc1ccc(-c2n[nH]c(-c3ccnc(C)c3)n2)cc1[N+](=O)[O-]`
Result: 17

Query: # query: IC50 | item `Cc1cc(-c2nc(-c3ccc(OCC(C)C)c([N+](=O)[O-])c3)n[nH]2)ccn1` | system: Xanthine dehydrogenase/oxidase (Bos taurus, UniProt P80457)
Result: 10

Next:
Query: GET /values?readout=IC50&system=Xanthine dehydrogenase/oxidase (Bos taurus, UniProt P80457)&item= `Brc1cc(-c2n[nH]c(-c3ccncc3)n2)ccn1`
Result: 9.9

----------
# system: CYP3A4 (Homo sapiens)
# Sequence (P08684 whole entry): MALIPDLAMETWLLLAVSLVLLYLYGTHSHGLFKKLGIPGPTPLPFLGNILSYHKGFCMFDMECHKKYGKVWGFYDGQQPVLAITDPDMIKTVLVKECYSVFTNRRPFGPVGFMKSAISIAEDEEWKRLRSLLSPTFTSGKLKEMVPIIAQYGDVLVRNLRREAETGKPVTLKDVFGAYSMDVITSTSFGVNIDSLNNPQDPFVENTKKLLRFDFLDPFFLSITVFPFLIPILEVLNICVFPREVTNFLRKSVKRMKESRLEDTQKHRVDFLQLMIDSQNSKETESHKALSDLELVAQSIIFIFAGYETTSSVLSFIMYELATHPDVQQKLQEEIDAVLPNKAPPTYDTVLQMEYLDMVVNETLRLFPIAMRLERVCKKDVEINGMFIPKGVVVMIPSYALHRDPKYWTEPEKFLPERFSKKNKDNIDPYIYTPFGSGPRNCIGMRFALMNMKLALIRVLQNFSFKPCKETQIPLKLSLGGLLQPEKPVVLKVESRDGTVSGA
# assay_method_text: Inhibition of CYP3A4 in human liver microsomes assessed as inhibition of testosterone hydroxylation at 10 uM by HPLC analysis
# Type: ADME, Microsome
# Set-up: dose 10 uM
# condition_context: probe testosterone (hydroxylation)
Each entry below carries its reported inhibition at 10 µM.
State the answer as a number, implicitly in %.

Example cases with answers are listed next.
Query: Form field: reported inhibition at 10 µM of `Cc1cc(-c2n[nH]c(-c3ccnc(C)c3)n2)ccn1`
Result: 15.3

Query: Request the reported inhibition at 10 µM associated with `N#Cc1cc(-c2n[nH]c(-c3ccnc(Cl)c3)n2)ccn1`
Result: 3.6

---
Query: Name the reported inhibition at 10 µM value associated with the compound `Cc1cc(-c2nc(-c3ccncc3)n[nH]2)ccn1`
Result: 24.7
